Tested on: Trypanosoma cruzi
experiment-description: Antitrypanosomal activity against Trypanosoma cruzi epimastigotes after 3 days
Type: functional, organism-based
study-conditions: 72 h
Give pIC50 for every item shown.
Convention used: pIC50 is expressed as -log10 of the molar concentration.

Prompt: Form field: pIC50 recorded for C=CC1=C(C)[C@@H]2C[C@@H](OC(C)=O)[C@H]3[C@](C)(COC(C)=O)CCC[C@]3(C)[C@H]2CC1 with Trypanosoma cruzi (enter value)
Completion: 4.23

Prompt: State its pIC50 on Trypanosoma cruzi: C=CC1=C(C)[C@@H]2CC(=O)[C@H]3[C@](C)(CO)CCC[C@]3(C)[C@H]2CC1
Completion: 4.44

Prompt: API: value(readout=pIC50, system=Trypanosoma cruzi) for record C[C@@H]1[C@H](O)[C@@H](C)/C=C/C=C/C=C/C=C/C=C/C=C/C=C/[C@H](O[C@@H]2O[C@H](C)[C@@H](O)[C@H](N)[C@@H]2O)C[C@@H]2O[C@](O)(C[C@@H](O)C[C@@H](O)[C@H](O)CC[C@@H](O)C[C@@H](O)CC(=O)O[C@H]1C)C[C@H](O)[C@H]2C(=O)O
Completion: 6.00

Prompt: Form field: pIC50 recorded for C=C[C@@]1(O)CC[C@H]2[C@@H](C[C@@H](O)[C@H]3[C@](C)(COC(C)=O)CCC[C@]23C)C1=C with Trypanosoma cruzi (enter value)
Completion: 4.78

Prompt: Any idea what pIC50 came out for C=CC1=C(C)[C@@H]2CC[C@H]3[C@](C)(CO)CCC[C@]3(C)[C@H]2CC1 on Trypanosoma cruzi?
Completion: 4.31

Prompt: Provide value of pIC50 for this record tested with Trypanosoma cruzi: C=CC1=C(C)[C@@H]2C[C@@H](O)[C@H]3[C@](C)(COC(C)=O)CCC[C@]3(C)[C@H]2CC1
Completion: 4.94

Prompt: Record C=CC1=C(C)[C@@H]2C[C@@H](O)[C@H]3[C@](C)(CO)CCC[C@]3(C)[C@H]2CC1 : what is its pIC50 with Trypanosoma cruzi?
Completion: 4.25

Prompt: Notebook: pull reported pIC50 for Trypanosoma cruzi, entry C=CC1=C(C)[C@@H]2CC[C@H]3[C@@](COC(C)=O)(C(=O)O)CCC[C@]3(C)[C@H]2CC1
Completion: 3.98
